# ASSAY COMMENT: Cytotoxicity assay
# Type: cell-based
# PARTICULARS: African green monkey, Vero cells
PROPERTY LABEL: CC50 at 48 h

structure=O=c1cnn([C@@H]2O[C@H](CO)[C@@H](O)[C@H]2O)c(=O)[nH]1 meas_value="44.5 µM"

Value source: paper PMC7111685
